# assay text: NCI Yeast Anticancer Drug Screen. Data for the sgs1 mgt1 strain (AID 161);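 also: 0% = growth of cultures given vehicle only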
# condition info: S. cerevisiae sgs1 mgt1 strain, at 50.0 µM (retest, dose inferred, filed as 5.0), active compounds read high
Compounds without any hit were thinned out: in the full panel of roughly 79,000, 15% have a hit. Activity calls are given as the source filed them. Rule as the data show it: active = growth inhibition above about 70%; inactive = the rest.
reported endpoint: growth inhibition

Take a look at these entries with their results.
compound	growth inhibition
[Cu+2].[NH-]c1ccccc1O.[NH-]c1ccccc1[OH2+]	67% (inactive)
CCCCCCCCCCC[N+](C)(C)CCCCCC[N+](C)(C)CCCCCCCCCCC	99% (active)
O=[N+]([O-])c1ccc(NNS(=O)(=O)c2ccccc2)c([N+](=O)[O-])c1	13% (inactive)
COC(=O)CC1(O)c2cc(OC)c3cccc(OC)c3c2CCC1(C)C(=O)OC (stereo unspecified)	99% (active)
CC(C)(C)CC(C)(C)N[P+](NC(C)(C)CC(C)(C)C)(NC(C)(C)CC(C)(C)C)NC(C)(C)CC(C)(C)C	99% (active)

Turning to the following compound.
Problem: Which growth inhibition value belongs to `Cc1nn(-c2ccc(Cl)cc2)c2nc(N)nc(N)c12` ?
Result: -2% (inactive)

====

# assay text: NCI Yeast Anticancer Drug Screen. Data for the mec2-1 strain (AID 157)
# condition info: S. cerevisiae mec2-1 strain, at 50.0 µM
The panel holds about 79,000 compounds, 15% with a hit somewhere; the sample as a whole holds those more often. The source made the active and inactive calls. Rule as the data show it: active = growth inhibition above about 70%; inactive = the rest.
Can you answer with just one of these options? active, inactive

Would you please look over these solved cases?
compound	assigned category
Oc1c(Cl)cc(C(c2cc(Cl)c(O)c(Cl)c2)C(Cl)(Cl)Cl)cc1Cl	active
O=Cc1ccc(/C=N\Nc2ccccc2)cc1	inactive
NC(=S)c1cccc(C2Nc3ccccc3O2)c1 (configuration not stated)	inactive
Nc1ccccc1N=Cc1ccccc1O	inactive
CCCCCC(C)NCCOC(=O)c1ccccc1 (configuration not stated)	inactive
Cc1csc(N)[n+]1CCC(=O)[O-]	inactive

From here, focus on the item given below.
Problem: Which outcome was assigned to `O=S(=O)(N/N=C/c1ccc(Cl)cc1Cl)c1ccccc1` in this test?
Result: inactive

====

Listing of recorded growth inhibition by entry.
# assay text: NCI Yeast Anticancer Drug Screen. Data for the bub3 strain (AID 167)
# condition info: S. cerevisiae bub3 mutant strain, at 50.0 µM (retest, dose inferred, filed as 5.0), active compounds read high
Compounds without any hit were thinned out: in the full panel of roughly 79,000, 15% have a hit.
Response body: numeric value in %, unit text excluded.

Problem: Which growth inhibition value belongs to `Cc1nn(-c2ccc(Cl)cc2)c2nc(N)nc(N)c12` ?
Result: 0

Problem: Which growth inhibition value belongs to `CC(=O)Sc1ccc(Br)cc1` ?
Result: 68

Problem: Which growth inhibition value belongs to `Cc1c(NC(=O)/C(=N/NC(=S)N=N)C2C(=O)CC(C)(C)CC2=O)c(O)c2ccccc2c1O` ?
Result: 98

Problem: Which growth inhibition value belongs to CCNCC(O)COc1ccc2c(c1)[n+]([O-])nc(N)[n+]2[O-] (centres undefined) ?
Result: 84

Problem: Which growth inhibition value belongs to `O=C(CC(=O)c1ccccc1)CC(=O)c1ccccc1Cl` ?
Result: 95

====

# assay text: NCI Yeast Anticancer Drug Screen. Data for the rad50 strain (AID 155);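 also: 0% = growth of vehicle-only cultures of the same strain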
# condition info: S. cerevisiae rad50 strain growth inhibition; at 50.0 µM
This is part of a sample that, as a whole, favours compounds with a hit. Of some 79,000 tested, about 15% had one in any assay. Calls of active or inactive are those of the source. Rule as the data show it: active = growth inhibition above about 70%; inactive = the rest.
Can you answer with just one of these options? 1 (active), -1 (inactive)

Problem: Which outcome was assigned to `CCOC(=O)/C(=C/O)c1c[nH]c2ccccc12` in this test?
Result: 1

Problem: Which outcome was assigned to Cc1ccc(SC2C(=O)C3(C)CCC2C3(C)C)cc1 (stereo not given) in this test?
Result: -1

====

Listing of recorded growth inhibition by entry.
# assay text: NCI Yeast Anticancer Drug Screen. Data for the bub3 strain (AID 167)
# condition info: S. cerevisiae bub3 mutant strain, at 50.0 µM (retest, dose inferred, filed as 5.0), active compounds read high
The panel holds about 79,000 compounds, 15% with a hit somewhere; the sample as a whole holds those more often. Activity calls are given as the source filed them. No stated cut-off is given here; in the data, active means growth inhibition above about 70%; inactive means the rest.

Take a look at these entries with their results.
compound	data value
OC(CCN1CCOCC1)c1ccc(Sc2ccccc2)cc1 (centres undefined)	88% (active)
N#CC(=C1C=CC(=NO)C=C1)c1cccc2ccccc12	91% (active)

Problem: Which growth inhibition value belongs to CC12OC1C(=O)c1ccccc1C2=O (centres undefined) ?
Result: 96% (active)

Problem: Which growth inhibition value belongs to CN(C)C1CCC2C(=C1OC(=O)c1ccccc1)C=Cc1ccccc12 (centres undefined) ?
Result: 12% (inactive)

====

# assay text: NCI Yeast Anticancer Drug Screen. Data for the rad50 strain (AID 155);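 also: 0% = growth of vehicle-only cultures of the same strain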
# condition info: S. cerevisiae rad50 strain growth inhibition; at 50.0 µM
This is part of a sample that, as a whole, favours compounds with a hit. Of some 79,000 tested, about 15% had one in any assay. Active and inactive are the calls of the source. Rule as the data show it: active = growth inhibition above about 70%; inactive = the rest.
Can you answer with just one of these options? active, inactive

Would you please look over these solved cases?
compound	assigned category
CCOC(=O)c1ccc2c3c([nH]c2c1C)-c1ccccc1CC3	active
CN(C)C1CCC2C3CC=C4CC(OC=O)CCC4(C)C3CCC21C (stereo not drawn)	active
CCOC(=O)C1=C(C)NC2=C(C(=O)N(c3ccccc3)C2c2ccccc2)C1c1ccccc1 (stereo not drawn)	active
O=S1(=O)CC2C1C1(Cl)OC2(Cl)c2ccccc21 (stereo not drawn)	active

Problem: Which outcome was assigned to `O=C(NCCNCCNCCNC(=O)c1cc(-c2ccccc2)nc2ccccc12)c1cc(-c2ccccc2)nc2ccccc12` in this test?
Result: active

Problem: Which outcome was assigned to `O=C(OCCN=c1c2ccccc2ccc2ccccc12)c1ccccc1` in this test?
Result: inactive

Problem: Which outcome was assigned to `O=[N+]([O-])/C=C\c1csc2ccccc12` in this test?
Result: active

Problem: Which outcome was assigned to `COC(=O)/C(=C/C=C(c1ccccc1)c1ccccc1)N(C(C)=O)C(C)=O` in this test?
Result: active

Problem: Which outcome was assigned to COc1ccc(N2CCN(CC(O)COc3cc4c(c5c3CCCC5)CCCC4)CC2)cc1 (stereo not drawn) in this test?
Result: inactive

Problem: Which outcome was assigned to `CC(=O)Sc1ccc(Br)cc1` in this test?
Result: inactive

Problem: Which outcome was assigned to `O=[N+]([O-])c1ccc(-c2ccccc2Cl)c([N+](=O)[O-])c1` in this test?
Result: active

Problem: Which outcome was assigned to CCO/C=C1\C(=O)C=C(C)CC1c1ccc(OC)c(OC)c1OC (stereo not drawn) in this test?
Result: inactive

Problem: Which outcome was assigned to `CSc1nc2nn(Cc3ccccc3)cc2c(=O)[nH]1` in this test?
Result: inactive

====

# assay text: NCI Yeast Anticancer Drug Screen. Data for the bub3 strain (AID 167)
# condition info: S. cerevisiae bub3 mutant strain, at 50.0 µM (retest, dose inferred, filed as 5.0), active compounds read high
This is part of a sample that, as a whole, favours compounds with a hit. Of some 79,000 tested, about 15% had one in any assay.
reported endpoint: growth inhibition (%)
Response body: numeric value in %, unit text excluded.

compound	reading unit	data value
CCCCCCC(OCCC)OCCC	%	-6
N=Cc1cc([N+](=O)[O-])ccc1O	%	96
COC(=O)C(=O)C(C(=O)c1ccc(F)cc1)c1nc2n(c1O)C(=N)N=N2 (stereo not given)	%	67
CN(C)N=Nc1ccc(-c2ccccc2)cc1	%	64

Turning to the following compound.
Problem: Which growth inhibition value belongs to `NC(=O)C#CC#CC#CCO` ?
Result: 77

Data provenance is PubChem BioAssay (NCI).
